Can you tell me FMAT Count for the items I'm about to list?
- Assay Target: T1, human αVβ6 integrin on cells (human, UniProt P06756 31-1048; P18564 22-788)
- T1 construct: whole, on cells; Heterodimer on transfected cells (HEK 293, K562, 293T) or on αVβ6-positive tumour lines (HT29, Detroit-562); also called αVβ6 on HEK 293, K562, 293T-αVβ6, HT29, Detroit-562 cells
- T1 sequence (P06756 31-1048, chain 1 of 2): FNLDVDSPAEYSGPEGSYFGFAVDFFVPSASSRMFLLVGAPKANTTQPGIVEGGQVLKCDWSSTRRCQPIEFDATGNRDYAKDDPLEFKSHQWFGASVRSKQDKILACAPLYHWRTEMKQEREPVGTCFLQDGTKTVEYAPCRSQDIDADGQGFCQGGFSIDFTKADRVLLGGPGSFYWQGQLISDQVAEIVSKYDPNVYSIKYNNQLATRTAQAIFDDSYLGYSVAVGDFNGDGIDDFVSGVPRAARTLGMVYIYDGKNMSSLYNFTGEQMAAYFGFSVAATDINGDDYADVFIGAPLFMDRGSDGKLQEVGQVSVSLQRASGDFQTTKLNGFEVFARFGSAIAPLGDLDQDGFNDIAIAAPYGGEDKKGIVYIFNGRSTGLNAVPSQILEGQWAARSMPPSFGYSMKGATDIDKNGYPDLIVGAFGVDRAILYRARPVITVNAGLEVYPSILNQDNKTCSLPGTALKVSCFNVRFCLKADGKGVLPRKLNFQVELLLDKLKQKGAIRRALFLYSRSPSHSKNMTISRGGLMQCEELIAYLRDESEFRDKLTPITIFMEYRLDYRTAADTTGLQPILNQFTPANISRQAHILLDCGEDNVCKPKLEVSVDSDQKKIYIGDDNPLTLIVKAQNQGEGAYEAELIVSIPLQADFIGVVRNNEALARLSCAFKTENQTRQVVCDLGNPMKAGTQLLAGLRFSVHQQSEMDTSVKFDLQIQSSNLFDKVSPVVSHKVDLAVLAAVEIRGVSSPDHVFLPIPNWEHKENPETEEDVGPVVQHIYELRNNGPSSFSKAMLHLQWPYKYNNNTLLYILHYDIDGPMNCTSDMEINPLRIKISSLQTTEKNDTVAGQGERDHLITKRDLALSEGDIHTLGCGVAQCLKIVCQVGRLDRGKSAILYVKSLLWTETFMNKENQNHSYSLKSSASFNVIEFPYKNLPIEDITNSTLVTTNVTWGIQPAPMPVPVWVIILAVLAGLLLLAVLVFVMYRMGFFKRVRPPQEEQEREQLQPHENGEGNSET
- T1 sequence (P18564 22-788, chain 2 of 2): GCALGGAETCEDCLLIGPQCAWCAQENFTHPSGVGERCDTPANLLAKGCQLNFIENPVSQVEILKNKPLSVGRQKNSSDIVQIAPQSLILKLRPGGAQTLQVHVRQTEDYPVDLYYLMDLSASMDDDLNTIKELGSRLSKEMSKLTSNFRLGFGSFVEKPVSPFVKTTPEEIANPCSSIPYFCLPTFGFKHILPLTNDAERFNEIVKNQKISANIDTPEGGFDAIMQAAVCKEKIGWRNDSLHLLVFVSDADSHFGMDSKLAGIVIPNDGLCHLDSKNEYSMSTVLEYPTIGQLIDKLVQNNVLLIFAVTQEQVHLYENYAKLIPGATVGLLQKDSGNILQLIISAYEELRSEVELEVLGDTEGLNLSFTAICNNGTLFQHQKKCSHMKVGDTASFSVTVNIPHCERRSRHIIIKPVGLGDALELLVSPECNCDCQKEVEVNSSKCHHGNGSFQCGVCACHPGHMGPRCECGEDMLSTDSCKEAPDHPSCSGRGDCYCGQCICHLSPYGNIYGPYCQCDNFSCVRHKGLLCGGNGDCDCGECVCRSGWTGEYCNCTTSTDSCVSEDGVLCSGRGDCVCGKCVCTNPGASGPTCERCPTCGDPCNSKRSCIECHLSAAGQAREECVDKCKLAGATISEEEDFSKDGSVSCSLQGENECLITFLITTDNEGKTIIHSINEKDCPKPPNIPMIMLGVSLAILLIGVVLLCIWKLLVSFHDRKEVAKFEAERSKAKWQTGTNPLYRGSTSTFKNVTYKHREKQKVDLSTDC
- Protocol Description: FMAT, HEK 293 cells overexpressing αVβ6, supernatant
// print number alone

Give the measured FMAT Count for sc 188 (antibody, V domains shown) VH: QVQLQESGPGLVKPSQTLSLTCTVSGGSISSGVYYWTWIRQHPGNGLEWIGYIYYSGSTSYNPSLKSRVTISVDTSKKQFSLNLTSVTAADTAVYYCAREGPLRGDYYYGLDVWGQGTTVTVSS VL: EIVLTQSPGTLSLSPGERATLSCRAGQTISSRYLAWYQQKPGQAPRPLIYGASSRATGIPDRFSGSGSGTDFTLTISRLEPEDFAVYYCQQYGSSPRTFGQGTKVEIK
127

Give the measured FMAT Count for sc 254 (antibody, V domains shown) VH: QVQLQESGPGLVKPSQTLSLTCTVSGGSISSGGYYWSWIRQHPGKGLEWIGYIYYSGSTYYNPSLKSRVTISVDTSKNQFSLKLSSVTAADTAMYYCARYRGPAAGRGDFYYFGMDVWGQGTTVTVSS VL: DIVMTQTPLSLSVTPGQPASIFCKSSQSLLNSDGKTYLCWYLQKPGQPPQLLIYEVSNRFSGVPDRFSGSGSGTDFTLKISRVEAEDVGVYYCMQGIQLPWAFFGQGTKVEIK
174

Give the measured FMAT Count for sc 298 (antibody, V domains shown) VH: QVQLVESGGGVVQPGRSLRLSCAASGFTFSSYGMHWVRQAPGKGLEWVAVIWYGGSNKYYADSVKGRFTISRDNSKNTLYLQMNSLRAEDTAVYYCARDLAARRGDYYYYGMDVWGQGTTVTVSS VL: SSELTQDPVVSVALGQTVRITCQGDSLRSYYLSWYQQKPGQAPVLVIYGKNNRPSGIPDRFSGSNSGNTASLTITGAQAEDEADYYCNSRDSSGNHLFGGGTKLTVL
102

Give the measured FMAT Count for sc 161 (antibody, V domains shown) VH: EVQLVQSGAEVKKPGESLKISCKGSGYSFTSYWIGWVRQMPGKGLEWMGIIYPGDSDTRYSPSFQGQVTISADKSISTAYLQWSSLKASDTAMYYCARHGIAAAGFYYYYMDVWGQGTTVTVSS VL: EIVLTQSPDTLSLSPGERASLSCRASQNVNRNYLVWYQQKPGQAPRLLIYGTSNRATGIPDRFSGSGSGTDFTLTISRLEPEDFAVYYCQQCGSLPFTFGPGTKVDIKR
23

From: patent US20080057063A1
